Test: Octanol/water partition coefficient, log D of the compound at pH 7.4
Format: physicochemical
Hi! Just check whether logD is below 2. Below gives y, equal or above gives n.

Problem: For the molecule CCN1CCN(C(=O)c2cc(N(CCBr)CCOS(C)(=O)=O)c(S(C)(=O)=O)cc2[N+](=O)[O-])CC1 , is logD under 2?
y

Just wondering, is logD of CN1CCN(C(=O)c2cc(N(CCBr)CCOS(C)(=O)=O)c(S(C)(=O)=O)cc2[N+](=O)[O-])CC1 below 2?
y

# strict comparison: is reported logD < 2? input = CS(=O)(=O)OCCN(CCBr)c1c(C(=O)NCCO)cc([N+](=O)[O-])cc1[N+](=O)[O-]
y

Does CCS(=O)(=O)c1cc([N+](=O)[O-])c(C(=O)N2CCN(C)CC2)cc1N(CCBr)CCBr have logD strictly under 2?
n

Report whether reported logD is lower than 2 (strictly) for CCS(=O)(=O)c1cc([N+](=O)[O-])c(C(=O)N2CCN(C(C)C)CC2)cc1N(CCBr)CCBr
n

Hi there! Is logD for CN1CCN(C(=O)c2cc(N(CCBr)CCBr)c(S(C)(=O)=O)cc2[N+](=O)[O-])CC1 below 2, do you know?
y

Input CCN1CCN(C(=O)c2cc(N(CCBr)CCBr)c(S(=O)(=O)CC)cc2[N+](=O)[O-])CC1 ; condition: logD strictly below 2. Does it hold?
n

Determine whether this molecule shows logD lower than 2 (ties excluded): CC(C)N1CCN(C(=O)c2cc(N(CCBr)CCBr)c(S(C)(=O)=O)cc2[N+](=O)[O-])CC1
y

Threshold test, logD < 2: CCN1CCN(C(=O)c2cc(N(CCBr)CCOS(C)(=O)=O)c(S(=O)(=O)CC)cc2[N+](=O)[O-])CC1
y

Strictly below 2 in logD? CCN1CCN(C(=O)c2cc(N(CCBr)CCBr)c(S(C)(=O)=O)cc2[N+](=O)[O-])CC1
y

---

System: SiHa
Experiment: Antiproliferative activity against human SiHa cells assessed as inhibition of cell growth incubated for 4 hrs under aerobic condition and measured after 5 days regrowth under aerobic condition
Assay type: functional, cell-based
measurement type: log10(IC50) (log10 of the value in µM)
Scale: log10; quantity: IC50; unit before log: µM

Supply reported log10(IC50) belonging to this compound: CCN1CCN(C(=O)c2cc(N(CCBr)CCOS(C)(=O)=O)c(S(C)(=O)=O)cc2[N+](=O)[O-])CC1 [CP-506]
2.66

Name the recorded log10(IC50) of the item CCN1CCN(C(=O)c2cc(N(CCBr)CCBr)c(S(C)(=O)=O)cc2[N+](=O)[O-])CC1 in your answer.
2.21

Complete the entry with log10(IC50) for CN1CCN(C(=O)c2cc(N(CCBr)CCBr)c(S(C)(=O)=O)cc2[N+](=O)[O-])CC1
2.38

Please give measured log10(IC50) of the following entry: CN1CCN(C(=O)c2cc(N(CCBr)CCOS(C)(=O)=O)c(S(C)(=O)=O)cc2[N+](=O)[O-])CC1
2.75

Specify measured log10(IC50) for CCN1CCN(C(=O)c2cc(N(CCBr)CCBr)c(S(=O)(=O)CC)cc2[N+](=O)[O-])CC1 .
2.40

Specify reported log10(IC50) for the compound shown: CS(=O)(=O)OCCN(CCBr)c1c(C(=O)NCCO)cc([N+](=O)[O-])cc1[N+](=O)[O-]
1.28
